src = patent US6251894A

# Test system: Substance P Induced Relaxation of the Pig Coronary Arteries
# Assay Info: Antagonism of substance P induced relaxation of the pig coronary arteries
# Applied Conditions: test compound concentration 3 × 10^-8 (unit not given), 30 min incubation
# Method: Antagonism of Substance P Induced Relaxation of the Pig Coronary Arteries Segments of coronary arteries taken from pigs (killed by injection of an overdose of sodium pentobarbital) were inverted and mounted for recording of isometric tension in organ baths (volume 20 ml) with the endothelium at the outside. The preparations were bathed in Krebs-Henseleit solution. The solution was kept at 37° C. and gassed with a mixture of O2 /CO2 (95/5). […]
% inhibition of the response to 10^-9 M substance P overview
Quantity Kind: % inhibition of the response to 10^-9 M substance P (%)

Compound: O=C(c1cc(C(F)(F)F)cc(C(F)(F)F)c1)N1CC[C@@H](N2CCC(C3c4ccccc4Cn4c3nc3ccccc34)CC2)C[C@@H]1Cc1ccccc1 (mixture of isomers)
Readout Unit: %
Value Observed: 95.4
//
Compound: O=C(c1cc(C(F)(F)F)cc(C(F)(F)F)c1)N1CCC(N2CCC(C3c4ccccc4CCn4c3nc3ccccc34)CC2)CC1Cc1ccccc1 (stereo not drawn)
Readout Unit: %
Value Observed: 93.2
//
Compound: O=C(c1cc(C(F)(F)F)cc(C(F)(F)F)c1)N1CC[C@@H](N2CCC(=C3c4sccc4CCn4ccnc43)CC2)C[C@H]1Cc1ccccc1 (relative stereo)
Readout Unit: %
Value Observed: 93.9
//
Compound: O=C(c1cc(C(F)(F)F)cc(C(F)(F)F)c1)N1CC[C@H](N2CCC(=C3c4ccccc4CCn4c(CO)cnc43)CC2)C[C@@H]1Cc1ccccc1 (racemic)
Readout Unit: %
Value Observed: 97.0
//
Compound: Cn1ccc2c1CCn1ccnc1C2=C1CCN([C@@H]2CCN(C(=O)c3cc(C(F)(F)F)cc(C(F)(F)F)c3)[C@@H](Cc3ccccc3)C2)CC1 (racemic)
Readout Unit: %
Value Observed: 96.5
//
Compound: Cc1cc(C)cc(C(=O)N2CC[C@H](N3CCC(=C4c5ccccc5CCn5ccnc54)CC3)C[C@@H]2Cc2ccccc2)c1 (racemic)
Readout Unit: %
Value Observed: 52.3
